# Procedure text: Toxicity liver stage against HepG2, at 10uM
# Type: cell-based
# Parameters: test concentration 10 uM, cell line HepG2-A16-CD81EGFP
# Experimental parameters: human, HepG2-A16-CD81EGFP cells; read-out: INHIBITION
Measured metric: cytotoxicity at 10 µM (%)

1) Cc1cc(CN2CCOC(CN(C)c3cccnn3)C2)no1 (configuration not stated)	8.23
2) COC(=O)c1ccnn1COc1ccc(Cl)cc1	-14.8
3) Cc1cccc(-c2nc(CN3CC(n4nc(C)cc4C)C3)no2)c1	1.37
4) COCCC1CCCCN1Cc1nc(C2CC2)no1 (configuration not stated)	8.53
5) CC(c1nnc(-c2ccccc2)o1)N1CCC(Nc2ccccc2)CC1 (configuration not stated)	5.1
6) Cc1cc2nc(-c3ccccc3)cc(NCC3CCS(=O)(=O)C3)n2n1 (configuration not stated)	1.38
7) CN(C)C(=O)c1cnc2n1CCN(Cc1ccncc1)C2	-69.4
8) O=C(C1CCC1)N1CCC2(CCN(Cc3cccc(F)c3)CC2)CC1	-4.29
9) Cc1noc(C(C)C)c1C(=O)NCC1CCN(c2ccccc2)C1 (configuration not stated)	-11.8
10) Cc1nc(NCc2ccccc2)cc(C(C)Cn2nc(C)c(C)c2C)n1 (configuration not stated)	7.03
11) CC(C)c1nc(CN(C)C(=O)Cn2nc3ccccc3n2)no1	10.2
12) Cc1cc(C(F)(F)F)nn1CC(C)C(=O)Nc1ccccn1 (configuration not stated)	9.84
13) CNC(=O)c1cccc(CC2COCCN(Cc3ccc(C)o3)C2)n1 (configuration not stated)	0.166
14) C[C@@H]1CN(C(=O)c2ccc[nH]2)C[C@]12CCN(CCN1CCCC1)C2=O	10.4
15) COCC(=O)N1CCC(c2cc(-c3ccc(N)nc3)cc(C)n2)CC1	2.06
16) Cn1nccc1C(=O)N1Cc2cc(Cl)ccc2OC2(CCOCC2)C1	19.7
17) COc1ccccc1OCC(=O)NS(=O)(=O)c1ccc(Cl)s1	-4.93
18) Cc1nn(C)c(C)c1CC(=O)N1CCCC1Cn1cccn1 (configuration not stated)	-14.8
19) CCn1nc2c(cc1=O)CN(Cc1nc(N)c3ccccc3n1)CC2	-5.59
20) CC(C)(C)Oc1ccc(CN)c(C(F)(F)F)c1	9.5
21) O=C(c1ccc(F)c(Cl)c1)N1C[C@H]2CC[C@@H](C1)N(Cc1ccccc1)C2	-8.28
22) CCN1CCN(C(=O)CCC2CCN(C(C)CCC(=O)OC)CC2)CC1 (configuration not stated)	0.9
23) Cc1nc(C)n(CC2CCCCN2CCCS(=O)(=O)N(C)C)n1 (configuration not stated)	-18.5
24) CC1(C)COCCN1C(=O)c1ccc(Cn2cncn2)cc1	-5.85
25) Cn1ccnc1CN1C[C@@H](CN2CCCC2)[C@@H](CO)C1	4.34
26) Cc1ccc(N2CCc3ncnc(N(C)C)c3CC2)nn1	-102
27) COc1ccc(C(=O)N2CCCC(n3cncn3)C2)nn1 (configuration not stated)	5.58
28) Cc1cccc(CN2CCC3(CCCN(C(=O)N4CCCC4)C3)C2=O)n1 (configuration not stated)	8.76
29) CCC(=O)N1CCC2(CC1)CNC(=O)c1cc(C)ccc1O2	-20
30) Cc1ccc(O)c(CNCC2CCCN2c2cccnn2)n1 (configuration not stated)	-7.92
31) Cc1n[nH]c2nc(-c3cc(Br)ccc3O)cc(C(=O)O)c12	0.0962
32) CCc1nc(C2CCCN2C(=O)CCc2cccs2)no1 (configuration not stated)	-3.19
33) Cn1ccnc1C1CCN(S(=O)(=O)c2ccc3oc(=O)[nH]c3c2)CC1	1.93
34) CCCc1noc(-c2ccc(-n3ncc(C(=O)O)c3C)nc2)n1	-1.4
35) CC[C@@H]1N(CC2CCOCC2)CCC[C@]12CCC(=O)N2	18.1
36) CCS(=O)(=O)N1CCc2c(CN(C)Cc3ccco3)cncc2C1	-4.85
37) Cn1ccnc1CN1CCN(CC(=O)NCc2ccccc2F)CC1	-22.1
38) CNC(=O)NC(=O)CN(Cc1ccc(C#N)cc1)Cc1cccc(F)c1	5.51
39) Cc1ccc(O[C@@H]2C[C@H]3CN(C(=O)c4cnccn4)CCN3C2)cc1	1.12
40) Cc1ccccc1C(C(=O)N(C)Cc1cnn(C)c1)N(C)C (configuration not stated)	-0.837
41) Cc1nn(C)c(=O)c2nn(-c3cccc(Cl)c3)c(C)c12	3.79
42) O=C(c1ccccc1F)N1C[C@H]2CCC[C@@]2(COCc2ccncc2)C1	7.4
43) CS(=O)(=O)N[C@@H]1CCN(Cc2ccncc2)[C@H]1Cc1cccnc1	-79.7
44) CC(C)c1ncc(CN2CCC(O)(c3ccccc3F)CC2)cn1	-0.882
45) CN(C)[C@@H]1CN(C(=O)c2ccc3ccccc3n2)C[C@H]1O	-22.5
46) Cc1noc(C)c1Cc1nc(C2CC2)no1	5.42
47) CCOCCCNCc1cc2c(C)cc(C)cc2n2c(=O)n(C)nc12	-4
